The reported measurements were obtained from patent US11524960B2.

biological target: MAT2A homodimer (Homo sapiens, UniProt P31153); construct: inferred from Ni sepharose purification and imidazole elution; experiment: Biochemical assay: inhibition of MAT2A (phosphate release, PiColorLock Gold); conditions: MAT2A IC50 score; read-out: Enzyme Inhibition (Example 275)
Sequence (P31153 whole entry): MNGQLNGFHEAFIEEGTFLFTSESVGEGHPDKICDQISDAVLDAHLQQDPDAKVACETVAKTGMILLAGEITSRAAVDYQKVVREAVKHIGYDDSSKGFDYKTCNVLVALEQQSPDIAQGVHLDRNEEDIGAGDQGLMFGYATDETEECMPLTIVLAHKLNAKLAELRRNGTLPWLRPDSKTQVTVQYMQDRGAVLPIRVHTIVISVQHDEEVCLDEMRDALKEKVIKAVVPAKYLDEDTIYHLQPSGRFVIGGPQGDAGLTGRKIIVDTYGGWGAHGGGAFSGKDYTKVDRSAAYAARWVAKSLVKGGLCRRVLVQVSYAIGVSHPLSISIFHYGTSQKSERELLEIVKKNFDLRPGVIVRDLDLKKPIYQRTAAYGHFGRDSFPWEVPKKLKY
Catalogue of IC50 readings, one per entry.
Measured quantity: IC50

[[record]]
compound = "Cn1cc2cc(-n3cc4ncc(OCC(F)F)nc4c(-c4ccc(OC(F)(F)F)nc4)c3=O)ccc2n1"
experimental_result = "< 100 nM"

[[record]]
compound = "CCOc1ccc2cn(-c3ccc4ncccc4c3)c(=O)c(-c3ccc(OC(F)F)nc3)c2n1"
experimental_result = "< 100 nM"

[[record]]
compound = "Cn1cc2cc(-n3cc4ccc(CCC(F)(F)F)nc4c(-c4ccc(Cl)cc4)c3=O)ccc2n1"
experimental_result = "< 100 nM"

[[record]]
compound = "COc1ccc(N2Cc3cnc(NCC4CC4)nc3C3(CCN(Cc4cc[nH]n4)C3)C2=O)cc1 (centres unmarked)"
experimental_result = "100 to 1000 nM"

[[record]]
compound = "COc1ccc(-n2cc3cnc(N(C)CC(F)(F)F)nc3c(-c3ccc(Br)cc3)c2=O)cc1"
experimental_result = "1000 to 10000 nM"


* * *

Catalogue of IC50 readings, one per entry.
target: MAT2A homodimer (Homo sapiens); construct: inferred from Ni sepharose purification and imidazole elution; test: Biochemical assay: inhibition of MAT2A (phosphate release, PiColorLock Gold); conditions: MAT2A IC50 score; read-out: Enzyme Inhibition (Example 275)
Measured quantity: IC50

[[record]]
molecule_smiles = "COc1ccc(-n2cc3cnc(NCC(F)(F)F)nc3c(-c3ccc(C4CCC4)cc3)c2=O)cc1"
assayed_system = "MAT2A homodimer (Homo sapiens)"
experimental_result = "1000 to 10000 nM"

[[record]]
molecule_smiles = "Cc1nc2cc(-n3cc4cnc(NCC(F)(F)F)nc4c(-c4ccc(Cl)cc4)c3=O)ccc2o1"
assayed_system = "MAT2A homodimer (Homo sapiens)"
experimental_result = "100 to 1000 nM"

[[record]]
molecule_smiles = "CCOc1ccc2cn(-c3ccc4ncccc4c3)c(=O)c(-c3ccc(C4CC4)nc3)c2n1"
assayed_system = "MAT2A homodimer (Homo sapiens)"
experimental_result = "< 100 nM"

[[record]]
molecule_smiles = "CCOc1ncc2cn(-c3ccc4ncccc4c3)c(=O)c(-c3ccc(OC(F)F)cc3)c2n1"
assayed_system = "MAT2A homodimer (Homo sapiens)"
experimental_result = "< 100 nM"


* * *

Catalogue of pIC50 readings, one per entry.
biological target: MAT2A homodimer (Homo sapiens, UniProt P31153); construct: inferred from Ni sepharose purification and imidazole elution; assay: Biochemical assay: inhibition of MAT2A (phosphate release, PiColorLock Gold); conditions: MAT2A IC50 score; read-out: Enzyme Inhibition (Example 275)
pIC50: −log10 of the molar value.
Measured quantity: pIC50

[[record]]
compound = "O=c1c(-c2ccc(Cl)cc2)c2nc(NCC(F)(F)F)ncc2cn1-c1ccc2ncn(C3CC3)c2c1"
assayed_system = "MAT2A homodimer (Homo sapiens, UniProt P31153)"
measured_quantity = "pIC50"
experimental_result = "> 7.00"

[[record]]
compound = "COc1ccc(CN2Cc3cnc(NCC4CC4)nc3C3(CCN(Cc4ccccc4)C3)C2=O)cc1 (stereo not shown)"
assayed_system = "MAT2A homodimer (Homo sapiens, UniProt P31153)"
measured_quantity = "pIC50"
experimental_result = "5.00 to 6.00"

[[record]]
compound = "Cn1cc2cc(-n3cc4ncc(OCC(F)F)nc4c(-c4ccc(OC(F)F)cc4)c3=O)ccc2n1"
assayed_system = "MAT2A homodimer (Homo sapiens, UniProt P31153)"
measured_quantity = "pIC50"
experimental_result = "> 7.00"

[[record]]
compound = "O=c1c(-c2ccc(OC(F)F)cc2)c2nc(OCC(F)(F)F)ncc2cn1-c1ccc2ncccc2c1"
assayed_system = "MAT2A homodimer (Homo sapiens, UniProt P31153)"
measured_quantity = "pIC50"
experimental_result = "> 7.00"


* * *

biological target: MAT2A homodimer (Homo sapiens); construct: inferred from Ni sepharose purification and imidazole elution; experiment: Biochemical assay: inhibition of MAT2A (phosphate release, PiColorLock Gold); conditions: MAT2A IC50 score; read-out: Enzyme Inhibition (Example 275)
Measured quantity: IC50

[[record]]
molecule_smiles = "O=c1c(-c2ccc(OC(F)F)cc2)c2nc(N3CCC3)ncc2cn1-c1ccc2ncccc2c1"
experimental_result = "1000 to 10000 nM"

[[record]]
molecule_smiles = "Cn1cc2cc(-n3cc4ccc(OCC(F)(F)F)nc4c(-c4ccc(Cl)cc4)c3=O)ccc2n1"
experimental_result = "< 100 nM"

[[record]]
molecule_smiles = "Cn1cc2cc(-n3cc4cnc(NC5CC5)nc4c(-c4ccc(Cl)cc4)c3=O)ccc2n1"
experimental_result = "< 100 nM"

[[record]]
molecule_smiles = "COc1ccc(-c2c(=O)n(-c3ccc4nccn4c3)cc3cnc(NCC(F)(F)F)nc23)cc1"
experimental_result = "< 100 nM"

[[record]]
molecule_smiles = "[2H]C([2H])([2H])Oc1ccc(-c2c(=O)n(-c3ccc4nn(C)cc4c3)cc3ccc(OCC(F)(F)F)nc23)cc1"
experimental_result = "< 100 nM"

[[record]]
molecule_smiles = "O=c1c(-c2ccc(OC(F)F)cc2)c2nc(SCC(F)(F)F)ncc2cn1-c1ccc2ncccc2c1"
experimental_result = "< 100 nM"

[[record]]
molecule_smiles = "O=c1c(-c2ccc(-c3cc[nH]n3)cc2)c2nc(NCC(F)(F)F)ncc2cn1-c1ccc2ncccc2c1"
experimental_result = "< 100 nM"


* * *

Catalogue of IC50 readings, one per entry.
molecular target: MAT2A homodimer (Homo sapiens, UniProt P31153); construct: inferred from Ni sepharose purification and imidazole elution; experiment: Biochemical assay: inhibition of MAT2A (phosphate release, PiColorLock Gold); details: MAT2A IC50 score; read-out: Enzyme Inhibition (Example 275)
Measured quantity: IC50

[[record]]
molecule_smiles = "CCOc1ccc2cn(-c3ccc(OC)cc3)c(=O)c(-c3ccc(OC(F)(F)F)nc3)c2n1"
experimental_result = "< 100 nM"

[[record]]
molecule_smiles = "CCOc1ccc2cn(-c3ccc4nn(C)cc4c3)c(=O)c(-c3ccc(Br)cc3)c2n1"
experimental_result = "< 100 nM"

[[record]]
molecule_smiles = "COc1ccc(-c2c(=O)n(-c3ccc4c(c3)OCCO4)cc3cnc(NCC(F)(F)F)nc23)cc1"
experimental_result = "< 100 nM"

[[record]]
molecule_smiles = "COc1ccc(-c2c(=O)n(-c3ccncc3)cc3cnc(NCC(F)(F)F)nc23)cc1"
experimental_result = "100 to 1000 nM"


* * *

biological target: MAT2A homodimer (Homo sapiens); construct: inferred from Ni sepharose purification and imidazole elution; test: Biochemical assay: inhibition of MAT2A (phosphate release, PiColorLock Gold); conditions: MAT2A IC50 score; read-out: Enzyme Inhibition (Example 275)
Measured quantity: IC50

[[record]]
compound = "COc1ccc(-n2cc3cnc(NCCC(F)(F)F)nc3c(-c3ccc(Br)cc3)c2=O)cc1 [Example 186]"
experimental_result = "100 to 1000 nM"

[[record]]
compound = "CCOc1cc(C)c2cn(-c3ccc4nn(C)cc4c3)c(=O)c(-c3ccc(Cl)cc3)c2n1 [Example 122-A]"
experimental_result = "< 100 nM"

[[record]]
compound = "CCOc1ccc2cn(-c3ccc4ncn(C)c4c3)c(=O)c(-c3ccc(Cl)cc3)c2n1 [Example 248]"
experimental_result = "< 100 nM"

[[record]]
compound = "Cn1cc2cc(-n3cc4ccc(OCC(F)F)nc4c(-c4ccc(OC(F)F)nc4)c3=O)ccc2n1 [Example 123-A]"
experimental_result = "< 100 nM"

[[record]]
compound = "CCOc1ncc2cn(-c3ccc4nn(C)cc4c3)c(=O)c(-c3ccc(OC(F)F)cc3)c2n1 [Example 272]"
experimental_result = "< 100 nM"

[[record]]
compound = "CCOc1ccc2cn(-c3ccc4nn(C)cc4c3)c(=O)c(-c3ccc(C(F)(F)F)cc3)c2n1 [Example 215]"
experimental_result = "< 100 nM"

[[record]]
compound = "Cn1cc2cc(-n3cc4ncc(OCC(F)F)nc4c(-c4ccc(OC(F)F)nc4)c3=O)ccc2n1 [Example 144-A]"
experimental_result = "< 100 nM"

[[record]]
compound = "CCOc1ccc2cn(-c3ccc4nn(C)cc4c3)c(=O)c(-c3cnc(C(F)(F)F)nc3)c2n1 [Example 119-A]"
experimental_result = "< 100 nM"

[[record]]
compound = "COc1ccc(N2Cc3cnc(NCC4CC4)nc3C3(CCN(C4CCCCC4)C3)C2=O)cc1 (stereo not shown) [Example 104]"
experimental_result = "1000 to 10000 nM"

[[record]]
compound = "Cn1cc2cc(-n3cc4cnc(NCC(F)F)nc4c(-c4ccc(Cl)cc4)c3=O)ccc2n1 [Example 102-A]"
experimental_result = "< 100 nM"

[[record]]
compound = "O=C1N(c2cn[nH]c2)Cc2cnc(NCC3CC3)nc2C12CCN(Cc1ccccc1F)C2 (stereo not shown) [Example 122]"
experimental_result = "100 to 1000 nM"

[[record]]
compound = "O=c1c(-c2ccc(Cl)cc2)c2nc(NCC(F)(F)F)ncc2cn1-c1ccc2nscc2c1 [Example 125]"
experimental_result = "< 100 nM"

[[record]]
compound = "Cn1cc2cc(-n3cc4ccc(OC5CC5)nc4c(-c4ccc(Cl)cc4)c3=O)ccc2n1 [Example 210]"
experimental_result = "< 100 nM"

[[record]]
compound = "Cn1cc2cc(-n3cc4ccc(SCC(F)(F)F)nc4c(-c4ccc(Cl)cc4)c3=O)ccc2n1 [Example 209]"
experimental_result = "< 100 nM"

[[record]]
compound = "O=c1c(-c2ccc(OC(F)F)cc2)c2nc(NCC(F)(F)F)ncc2cn1-c1ccc2nn(C3CC3)cc2c1 [Example 154]"
experimental_result = "< 100 nM"

[[record]]
compound = "COCc1ccc2cn(-c3ccc4nn(C)cc4c3)c(=O)c(-c3ccc(Cl)cc3)c2n1 [Example 136-A]"
experimental_result = "< 100 nM"

